- Tested on: Rattus norvegicus
- Test: Anti-inflammatory activity in Rattus norvegicus Wistar (rat) assessed as inhibition of carrageenan-induced paw edema at 160 mg/kg, po administered 30 min prior to carrageenan challenge measured at 4 hr relative to control
- Format: functional
Task for the reader: assign each of the following compounds its reported inhibition in vivo at 160 mg/kg.
Answers are plain numbers, in %.

>>> result_number("CN(C)c1ccc(/C=C/C(=O)c2ccc(-c3ccccc3)cc2)cc1")
58.7
>>> result_number("COc1ccc(C(=O)/C=C/c2ccc(Cl)cc2)cc1")
77.6
>>> result_number("COc1ccc(C(=O)/C=C/c2ccc(N(C)C)cc2)cc1")
69.8
>>> result_number("O=C(/C=C/c1ccccc1Cl)c1ccc(-c2ccccc2)cc1")
61.9
>>> result_number("COc1ccc(/C=C/C(=O)c2ccc(-c3ccccc3)cc2)cc1")
74.8

Quick request: inhibition in vivo at 160 mg/kg for each listed item, please.
1. COc1ccc(/C=C/C(=O)c2ccc(Br)cc2)cc1
2. O=C(/C=C/c1ccc(F)cc1)c1ccc(-c2ccccc2)cc1
3. COc1cc(/C=C/C(=O)c2ccc(-c3ccccc3)cc2)cc(OC)c1
4. O=C(/C=C/c1ccoc1)c1ccc(-c2ccccc2)cc1
5. COc1ccc(C(=O)/C=C/c2ccccc2)cc1 [4'-METHOXYCHALCONE]
6. COc1ccc(C(=O)/C=C/c2ccc(O)c(OC)c2)cc1

1. 67.7
2. 76.8
3. 63.2
4. 52.9
5. 69.8
6. 80

----------
- Test system: Rattus norvegicus
- Test: Anti-inflammatory activity in Rattus norvegicus Wistar (rat) assessed as inhibition of carrageenan-induced paw edema at 160 mg/kg, po administered 30 min prior to carrageenan challenge measured at 4 hr relative to control
- Type: functional
Task for the reader: assign each of the following molecules its reported inhibition in vivo at 160 mg/kg.
One number for each entry, in %.

Guide cases for inhibition in vivo at 160 mg/kg, answers given:
>>> result_number("O=C(/C=C/c1ccc(Cl)cc1)c1ccc(-c2ccccc2)cc1")
52.9
>>> result_number("O=C(/C=C/c1ccccc1O)c1ccc(-c2ccccc2)cc1")
80.6
>>> result_number("COc1ccc(/C=C/C(=O)c2ccc(OC)cc2)cc1")
72.9
>>> result_number("O=C(/C=C/c1ccccc1)c1ccc(-c2ccccc2)cc1")
68.4

Quick request: inhibition in vivo at 160 mg/kg for each listed item, please.
1. COc1ccc(C(=O)/C=C/c2ccccc2O)cc1
2. O=C(/C=C/c1ccccc1[N+](=O)[O-])c1ccc(-c2ccccc2)cc1
3. O=C(/C=C/c1ccc(O)cc1)c1ccc(-c2ccccc2)cc1
4. CN(C)c1ccc(/C=C/C(=O)c2ccc(Br)cc2)cc1
5. COc1cc(/C=C/C(=O)c2ccc(-c3ccccc3)cc2)cc(OC)c1OC

[76.1, 45.2, 74.8, 54.5, 78.7]

Numbers sourced from ChEMBL document CHEMBL3044776.
